# system name: T1, Human Serum Albumin (human, UniProt P02768 25-609)
# T1 construct: mature; purified protein on CM5 chips for BIAcore; also called HSA; human SA
# test details: BIAcore SPR;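 note: purified dAbs run at 1 µM, 500 nM and 50 nM over human, cynomolgus, mouse and rat serum albumin in BIAcore binding measurements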
endpoint: koff (s⁻¹)
Answer with a number only, understood to be in s⁻¹.

| binder | numeric readout |
| --- | --- |
| DOM7h-11-19 (other) VL: DIQMTQSPSSLSASVGDRVTITCRASRPIGTMLSWYQQKPGKAPKLLILFGSRLQSGVPSRFSGSGSGTDFTLTISSLQPEDFATYYCAQTGTHPTTFGQGTKVEIKR | 0.11 |
| DOM7h-14-18 (other, Vk dAb (AlbudAb)) VL: DIQMTQSPSSLSASVGDRVTITCRASQWIGSQLSWYQQKPGKAPKLLIMWRSSLQSGVPSRFSGSGSGTDFTLTISSLQPEDFATYYCAQGLMKPMTFGQGTKVEIKR | 0.0339 |
| DOM7h-14-10 (other, Vk dAb (AlbudAb)) VL: DIQMTQSPSSLSASVGDRVTITCRASQWIGSQLSWYQQKPGKAPKLLIMWRSSLQSGVPSRFSGSGSGTDFTLTISSLQPEDFATYYCAQGLRHPKTFGQGTKVEIKR | 0.0139 |
| DOM7h-11-18 (other) VL: DIQMTQSPSSLSASVGDRVTITCRASRPIGTMLSWYQQKPGKAPKLLIWFGSRLQSGVPSRFSGSGSGTDFTLTISSLQPEDFATYHCAQAGTHPTTFGQGTKVEIKR | 0.051 |
| DOM7h-11-3 (other) VL: DIQMTQSPSSLSASVGDRVTITCRASRPIGTTLSWYQQKPGKAPKLLILWNSRLQSGVPSRFSGSGSGTDFTLTISSLQPEDFATYYCAQAGTHPTTFGQGTKVEIKR | 0.016 |

query: Quick one: koff of DOM7h-14 (other, Vk dAb (AlbudAb)) VL: DIQMTQSPSSLSASVGDRVTITCRASQWIGSQLSWYQQKPGKAPKLLIMWRSSLQSGVPSRFSGSGSGTDFTLTISSLQPEDFATYYCAQGAALPRTFGQGTKVEIKR ?
result: 0.0417

query: Consider the binder shown here: DOM7h-14-19 (other, Vk dAb (AlbudAb)) VL: DIQMTQSPSSLSASVGDRVTISCRASQWIGSQLSWYQQKPGEAPKLLIMWRSSLQSGVPSRFSGSGSGTDFTLTISSLQPEDFATYYCAQGAALPRTFGQGTKVEIKR What is its recorded koff?
result: 0.0525

Hello, the source for this data is patent US20130129746A1, in case you need it.
